List of CC50 values.
# System: P4 cells
# Measurement protocol: Cytotoxicity (CC50), MTT assay on P4 cells
# Type: cell-based
# Experimental conditions: 3 days

Molecule: CCc1c(C)[nH]c(=O)c(C)c1OC1CC(C)CC(C)C1 (stereo not shown)
Relation qualifier: =
CC50 / µM: 80
//
Molecule: CCc1c(C)[nH]c(=O)c(CSC(C)=O)c1OC1CC(C)CC(C)C1 (stereo not shown)
Relation qualifier: =
CC50 / µM: 8
//
Molecule: CCOC(=O)c1c(OC2CCCCC2Cl)c(CC)c(C)[nH]c1=O (stereo not shown)
Relation qualifier: >
CC50 / µM: 100
//
Molecule: CCc1c(C)[nH]c(=O)c(CN=[N+]=[N-])c1OC1CC(C)CC(C)C1 (stereo not shown)
Relation qualifier: =
CC50 / µM: 54
//
Molecule: CCOC(=O)c1c(OC2CCCC(C)C2)c(CC)c(C)[nH]c1=O (stereo not shown)
Relation qualifier: >
CC50 / µM: 100
//
Molecule: CCc1c(C)[nH]c(=O)c(CO)c1OC1CC(C)CC(C)C1 (stereo not shown)
Relation qualifier: =
CC50 / µM: 76
//
Molecule: CCOC(=O)c1c(OC2CC(C)CC(C)C2)c(CC)c(C)[nH]c1=O (single isomer, unassigned) [Z37A]
Relation qualifier: =
CC50 / µM: 63
